# system: T1, S100A1 (Homo sapiens, UniProt P23297)
# T1 chain: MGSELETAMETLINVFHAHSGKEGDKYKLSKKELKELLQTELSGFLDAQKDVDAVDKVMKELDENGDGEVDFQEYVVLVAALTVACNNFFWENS
# assay_explanation: steady-state fluorescence anisotropy
No end group written: not given here. *: point of attachment. FITC = O=C1OC2(c3ccc(O)cc3Oc3cc(O)ccc32)c2ccc(NC(=S)*)cc21
metric_name: pKd
Expect pKd as a plain number equal to -log10 of the molar concentration.

Hello, please tell me recorded pKd for this one: {FITC}-LIGRAYRSNYTRKHFR [TRPM6np]
4.75

Measured values drawn from paper PMC6770577 for this set.
